src = patent US20240010606A1

- TEST_NAME: Hepatocyte stability assay, human
- Assay type: in vitro ADME
- APPLIED_CONDITIONS: cryopreserved hepatocytes, 10 μM compound, Table 6, read-out: T½
The reader will find reported half-life at 10 μM values listed item by item below.

Use these answered entries as a reference point.
> print(dat)
                                   compound          value.type  observed.value
1  O=C(O)/C=C/C(=O)OC1(c2cc(Cl)cc(OC(F)(F)F)c2)CCC1 [Intermediate 41]  half-life at 10 μM        > 1.67 h
2  C[C@@H](OC(=O)/C=C/C(=O)O)c1ccc(C(F)(F)F)cc1 [Intermediate 20]  half-life at 10 μM        > 1.67 h
3  C[C@H]1C[C@](OC(=O)/C=C/C(=O)O)(c2ccc(C(F)(F)F)cc2)C1 (single isomer, unassigned) [Intermediate 33]  half-life at 10 μM        > 1.67 h

INPUT: Report measured half-life at 10 μM; entry is O=C(O)/C=C/C(=O)OC1CCCCCC1 [Intermediate 8]
OUTPUT: 0.5 to 1.67 h

----------
- Test system: NRF2
- TEST_NAME: NRF2 activation assay (DiscoverX PathHunter NRF2 translocation kit, U2OS cells)
- Assay type: cell-based
- APPLIED_CONDITIONS: +GSH; normalised to dimethyl fumarate high control; Table 3
VALUE_TYPE: NRF2 activation Emax

Use these answered entries as a reference point.
> print(dat)
                               smiles.entry            value.type         observed.value
1          O=C(O)COC(=O)/C=C/C(=O)OC1CCCCC1  NRF2 activation Emax   + (+ means >17.1-99)
2  CCCCCC[C@@H](C)OC(=O)/C=C/C(=O)OCCC(=O)O  NRF2 activation Emax  ++ (++ means 100-149)
3         O=C(O)CCOC(=O)/C=C/C(=O)OC1CCCCC1  NRF2 activation Emax   + (+ means >17.1-99)
4  O=C(/C=C/C(=O)OC1(C(=O)O)CC1)OC1CCCCCCC1  NRF2 activation Emax  ++ (++ means 100-149)

INPUT: Report measured NRF2 activation Emax; entry is O=C(O)COC(=O)/C=C/C(=O)OC1CCCCCCC1
OUTPUT: ++ (++ means 100-149)

----------
- System: NRF2
- TEST_NAME: NRF2 activation assay (DiscoverX PathHunter NRF2 translocation kit, U2OS cells)
- Format: cell-based
- APPLIED_CONDITIONS: +GSH; normalised to dimethyl fumarate high control; Table 3
- Method: Biological Example 2—NRF2 Activation Assay Measuring Compound Activation Effects on the Anti-Inflammatory Transcription Factor NRF2 in DiscoverX PathHunter NRF2 Translocation Kit Potency and efficacy of compounds of formula (I) against the target of interest to activate NRF2 (nuclear factor erythroid 2-related factor 2) were determined using the PathHunter NRF2 translocation kit (DiscoverX). […]
Counter-ions that a name gives are not always drawn.
VALUE_TYPE: NRF2 activation Emax

Use these answered entries as a reference point.
> print(dat)
                                   compound  study.system         observed.value
1   CCCCCC[C@@H](C)OC(=O)/C=C/C(=O)OCC(=O)O          NRF2  ++ (++ means 100-149)
2  O=C(O)COC(=O)/C=C/C(=O)OC1(c2ccc(C(F)(F)F)cc2)CCC1          NRF2   + (+ means >17.1-99)
3   O=C(/C=C/C(=O)OC1CCCCCCC1)OCCc1nnn[nH]1          NRF2   + (+ means >17.1-99)
4  CC(CC(=O)O)OC(=O)/C=C/C(=O)OC1CCCCCCC1 (stereo not drawn)          NRF2   + (+ means >17.1-99)
5  C[C@H](OC(=O)/C=C/C(=O)OC1CCCCCCC1)C(=O)O          NRF2   + (+ means >17.1-99)

INPUT: Print NRF2 NRF2 activation Emax for C[C@@H](OC(=O)/C=C/C(=O)OC1CCCCCCC1)C(=O)O .
OUTPUT: ++ (++ means 100-149)

INPUT: Print NRF2 NRF2 activation Emax for COC(=O)/C=C/C(=O)OC [dimethyl fumarate, Dimethyl fumarate, reference compound] .
OUTPUT: 17.1%

INPUT: Print NRF2 NRF2 activation Emax for CC(C)(COC(=O)/C=C/C(=O)OC1CCCCCCC1)C(=O)O .
OUTPUT: + (+ means >17.1-99)

INPUT: Print NRF2 NRF2 activation Emax for O=C(O)CCOC(=O)/C=C/C(=O)OC1CCCCCCC1 .
OUTPUT: ++ (++ means 100-149)
